# experimental.target: Tyrosine-protein phosphatase non-receptor type 7 (Homo sapiens)
# protocol.description: inhibition of HePTP dephosphorylation activity – biochemical, DiFMUP fluorescence, recombinant human enzyme (AID 401)
# measurement.conditions: recombinant PTPN7, DiFMUP fluorescence; at 50 µM; enzyme 55 ng/mL; 25 °C; DTT 5 mM; active compounds read high
readout.type: inhibition (%)
Answers are plain numbers, in %.

INSERT INTO assay_data (entry_smiles, readout_type, reported_result) VALUES
  ('Cc1cccc(O)c1N=Cc1cc(C(=O)O)ccc1O', 'inhibition', 37),
  ('O=C(O)c1ccc([O-])cn1.OO.OO.[K+].[K+].[O]=[V]', 'inhibition', 76),
  ('CCOC(=O)c1ccc(N=Cc2cc(C(=O)O)ccc2O)cc1', 'inhibition', 39),
  ('Cc1ccc(C)n1-c1cc(C(=O)O)ccc1O', 'inhibition', 77),
  ('CN(N=O)c1ccc(O)c(O)c1', 'inhibition', 92);

Continue with the next molecule.
(Q) Quick check: inhibition of `O=C(O)c1ccc(O)c(/C=N/N(CCO)C2=NS(=O)(=O)c3ccccc32)c1` ?
(A) 57

* * *

# experimental.target: Tyrosine-protein phosphatase non-receptor type 7 (Homo sapiens)
# protocol.description: inhibition of HePTP dephosphorylation activity – biochemical, DiFMUP fluorescence, recombinant human enzyme (AID 401)
# measurement.conditions: recombinant PTPN7, DiFMUP fluorescence; at 50 µM; enzyme 55 ng/mL; 25 °C; DTT 5 mM; active compounds read high
Classification field: enter TRUE for inhibition values not below 60%, FALSE for values below it.

INSERT INTO measurements (compound, experimental_target, assigned_class) VALUES
  ('NC1=NC(=O)/C(=C/C=C/c2ccc([N+](=O)[O-])o2)S1', 'Tyrosine-protein phosphatase non-receptor type 7 (Homo sapiens)', 'TRUE'),
  ('CC(=O)c1ccc2c(c1)C1C=CCC1C(C(=O)O)N2 (configuration not stated)', 'Tyrosine-protein phosphatase non-receptor type 7 (Homo sapiens)', 'TRUE'),
  ('O=C(Nc1ccc(O)cc1C(=O)O)c1ccc2c(c1)C(=O)N(CC1CCCO1)C2=O (configuration not stated)', 'Tyrosine-protein phosphatase non-receptor type 7 (Homo sapiens)', 'FALSE'),
  ('CCn1nc(-c2ccc(Cl)cc2)nc2c(=O)n(C)c(=O)nc1-2', 'Tyrosine-protein phosphatase non-receptor type 7 (Homo sapiens)', 'FALSE'),
  ('COc1ccc(OC)c(N=Cc2cc(C(=O)O)ccc2O)c1', 'Tyrosine-protein phosphatase non-receptor type 7 (Homo sapiens)', 'FALSE'),
  ('Cc1ccc2nc(-c3cc(N=Cc4cc(C(=O)O)ccc4O)ccc3O)[nH]c2c1', 'Tyrosine-protein phosphatase non-receptor type 7 (Homo sapiens)', 'TRUE'),
  ('O=C(O)c1ccc(O)c(C=Nc2ccc3oc(-c4ccc(F)cc4Cl)nc3c2)c1', 'Tyrosine-protein phosphatase non-receptor type 7 (Homo sapiens)', 'TRUE'),
  ('Cn1nc(/C=C/c2ccccc2)nc2c(=O)n(C)c(=O)nc1-2', 'Tyrosine-protein phosphatase non-receptor type 7 (Homo sapiens)', 'FALSE');

(Q) Can `O=C(O)c1ccc(O)c(C=Nc2ccc3oc(-c4cc(Cl)ccc4Cl)nc3c2)c1` be said to have inhibition at or above 60%?
(A) FALSE

(Q) Can `O=C1NC(=S)S/C1=C\C=C\c1ccc([N+](=O)[O-])o1` be said to have inhibition at or above 60%?
(A) TRUE

(Q) Can `Cc1ccc(C)n1-c1ccc(C(=O)O)cc1O` be said to have inhibition at or above 60%?
(A) FALSE

(Q) Can `Oc1c(Cl)c(Cl)c(O)c2nsnc12` be said to have inhibition at or above 60%?
(A) FALSE

(Q) Can `[NH-]CO.[NH-]CO.[NH-]CO.[NH-]CO.[O]=[V][O][V]=[O]` be said to have inhibition at or above 60%?
(A) FALSE
